Target: T1, rat CD47 (rat, UniProt P97829 19-303)
T1 construct: whole, on cells; also called CD47 on rat red blood cells
T1 sequence (looked up): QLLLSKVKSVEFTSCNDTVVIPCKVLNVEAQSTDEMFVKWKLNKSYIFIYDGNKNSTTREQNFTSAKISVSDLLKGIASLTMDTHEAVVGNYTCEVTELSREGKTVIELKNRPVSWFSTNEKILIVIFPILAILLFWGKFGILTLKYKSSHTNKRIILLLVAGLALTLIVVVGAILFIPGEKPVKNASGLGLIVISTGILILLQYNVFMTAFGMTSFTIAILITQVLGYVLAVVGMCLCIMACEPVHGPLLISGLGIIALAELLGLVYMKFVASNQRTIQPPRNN
Assay: flow cytometry on RBCs, antibody 10 ng/ml
Reported values of mean fluorescence relative to chimeric antibody for individual entries

Worked cases, answers included:
pVxK7b-037-hum02-LC/pVxK7b-037-hum02-HC (antibody, human IgG1, V domains shown, Full-length human IgG1/kappa in CHO supernatant; Variable entries end within framework 4 (...FGQG / ...WGQG); also called Clone 2) VH: QVQLQESGPGLVKPSQTLSLTCTVSGYTFTNYYVFWVRQARGQRLEWIGDINPVNGDTNFNEKFKNRVTISADKSISTAYLQWSSLKASDTAMYYCARGGYTMDYWGQG VL: DVVMTQSPLSLPVTLGQPASISCRSSQSLVHSNGNTYLHWYQQKPGQAPRLLIYKVSYRFSGVPSRFSGSGSGTEFTLTISSLQPDDFATYYCSQNTHVPRTFGQG : 2.6 fold of chimera
pVxK7b-037-hum04-LC/pVxK7b-037-hum04-HC (antibody, human IgG1, V domains shown, Full-length human IgG1/kappa in CHO supernatant; Variable entries end within framework 4 (...FGQG / ...WGQG); also called Clone 4) VH: QVQLQESGPGLVKPSQTLSLTCTVSGYTFTNYYVFWVRQAPGKGLEWVSDINPVNGDTNFNEKFKNRVTISVDTSKNQFSLKLSSVTAADTAVYYCARGGYTMDYWGQG VL: DIQMTQSPSSLSASVGDRVTITCRSSQSLVHSNGNTYLHWYLQKPGQSPQLLIYKVSYRFSGIPARFSGSGSGTEFTLTISSLQSEDFAVYYCSQNTHVPRTFGQG : 1 fold of chimera

Next binder, mean fluorescence relative to chimeric antibody to be filled in.
Given pVxK7b-037-hum03-LC/pVxK7b-037-hum03-HC (antibody, human IgG1, V domains shown, Full-length human IgG1/kappa in CHO supernatant; Variable entries end within framework 4 (...FGQG / ...WGQG); also called Clone 3) VH: EVQLVQSGAEVKKPGESLRISCKGSGYTFTNYYVFWVRQARGQRLEWIGDINPVNGDTNFNEKFKNRVTITADKSTSTAYMELSSLRSEDTAVYYCARGGYTMDYWGQG VL: DVVMTQSPLSLPVTLGQPASISCRSSQSLVHSNGNTYLHWYQQKPGKAPKLLIYKVSYRFSGVPDRFSGSGSGTDFTLKISRVEAEDVGVYYCSQNTHVPRTFGQG , respond with its mean fluorescence relative to chimeric antibody.
1.7 fold of chimera
